The values you see were collected from paper PMC4057235.

Target: PAR2 (Homo sapiens, UniProt P55085)
Construct: 16HBE14o- cells on E-plates in growth medium; endogenous in cells; host or cells: 16HBE14o- cells
Sequence (P55085 26-397): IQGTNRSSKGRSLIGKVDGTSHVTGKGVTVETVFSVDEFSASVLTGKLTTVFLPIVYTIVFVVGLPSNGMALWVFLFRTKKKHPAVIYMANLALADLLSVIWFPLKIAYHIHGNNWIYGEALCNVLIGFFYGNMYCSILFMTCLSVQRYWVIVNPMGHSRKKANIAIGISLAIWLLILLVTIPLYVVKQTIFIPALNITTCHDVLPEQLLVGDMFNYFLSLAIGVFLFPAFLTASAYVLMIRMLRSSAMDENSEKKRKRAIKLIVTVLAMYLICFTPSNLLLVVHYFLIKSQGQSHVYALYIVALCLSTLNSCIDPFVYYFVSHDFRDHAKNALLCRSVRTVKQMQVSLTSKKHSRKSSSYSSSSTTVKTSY
Assay: xCELLigence RTCA in vitro physiological response, 16HBE14o- cells
Format: cell-based
Conditions: peak Normalized Cell Index within 4 hr
Assign pEC50 to each entry below.
Friendly reminder that pEC50 comes from taking -log10 of the concentration in mol/L.

# lookup: pEC50 of CCCCCCCCCCCCCCCCNC(=O)COCC(=O)NCCCOCCOCCOCCCNC(=O)COCC(=O)NCCCOCCOCCOCCCNC(=O)[C@H](CCCNC(=N)N)NC(=O)CNC(=O)[C@@H](NC(=O)[C@H](CC1CCCCC1)NC(=O)c1csc(N)n1)[C@@H](C)CC
7.80

CCCCCCCCCCCCCCCCNC(=O)COCC(=O)NCCCOCCOCCOCCCNC(=O)COCC(=O)NCCCOCCOCCOCCCNC(=O)COCC(=O)NCCCOCCOCCOCCCNC(=O)[C@@H](NC(=O)[C@H](CC(C)C)NC(=O)c1csc(N)n1)[C@@H](C)CC ?
6.51

CC[C@H](C)[C@H](NC(=O)[C@H](CC1CCCCC1)NC(=O)c1csc(N)n1)C(N)=O ?
5.96

CCCCCCCCCCCCCCCCNC(=O)COCC(=O)NCCCOCCOCCOCCCNC(=O)COCC(=O)NCCCOCCOCCOCCCNC(=O)COCC(=O)NCCCOCCOCCOCCCNC(=O)[C@H](CC(C)C)NC(=O)[C@H](CCCNC(=N)N)NC(=O)CNC(=O)[C@@H](NC(=O)[C@H](CC(C)C)NC(=O)c1csc(N)n1)[C@@H](C)CC ?
8.77

CCCCCCCCCCCCCCCCNC(=O)COCC(=O)NCCCOCCOCCOCCCNC(=O)COCC(=O)NCCCOCCOCCOCCCNC(=O)[C@@H](NC(=O)[C@H](CC1CCCCC1)NC(=O)c1csc(N)n1)[C@@H](C)CC ?
7.07

CCCCCCCCCCCCCCCCNC(=O)COCC(=O)NCCCOCCOCCOCCCNC(=O)COCC(=O)NCCCOCCOCCOCCCNC(=O)[C@H](CCCNC(=N)N)NC(=O)CNC(=O)[C@@H](NC(=O)[C@H](CC1CCCCC1)NC(=O)c1ccno1)[C@@H](C)CC ?
8.17
